test system: Saccharomyces cerevisiae; test: protein stability index of tFT-peptide fusion (C-terminal peptide) (PSI (0-1 scale)); higher = more stable (slower turnover); settings: genetic background: das1 deletion; temperature: 37 C;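 also: PSI is a weighted mean of sequencing reads over stability bins, variants kept only with over 10 reads, mCherry proximal and sfGFP distal, peptide attached via GGGS linker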
Each entry falls in a class defined on protein stability index; the bands are low interval = under 0.5, middle interval = from 0.5 up to 0.7, high interval = 0.7 and over

Which class holds RVCCLSFFFVFL ?
middle interval

// query: YYLHFRFFIYVF
low interval

Now this one: VFFRVLVAGCRQ
middle interval

Now give it for RCSLFAKQVVSL too.
low interval

Then what about the sequence VLYCRSCFLRVS ?
middle interval

Another sequence to look at: PRPSPPLPPPSS
high interval

Also need WHFPCPPLPCPV , thanks.
low interval

Can you check RGAVRVAWYPVL next?
high interval

Please do the same for VCLVFLFQFVLI as well.
middle interval

// repeat for VLVRVIYLLVSG and report
low interval

// next record INILVIWRKNHV
middle interval

Thanks! And FYACRLWLVSVR ?
low interval

Record: SPGGALVFFVLV
middle interval

Now try LQYSKALAVICG .
low interval

Follow-up item: QLIDVGLLNCAA
middle interval

Continue with FCLFMFVPLLPL
middle interval

// same read-out, input: RHVFLRIKVLNL
middle interval

Moving on to the next sequence: RVSECVSVVGWM
high interval

And IRFFLIVFCFLR ?
low interval

Could you do the same for VGKGAGVRDGSR , please?
high interval

Let us now turn to CPYSNAFALCVF
low interval

Lookup RVCYQIAISLPI
middle interval

Now consider LAVRSGFPFGLF and answer again.
high interval

Entry YAFLWCVFYLSF please
low interval

Entry KKKTKYSKDKLC please
high interval

What about SLPCCKVVFCVI ?
middle interval

Another: AWVLISNRRRIM
high interval

Please answer likewise for ILFCVRIGLFWT
low interval

Same for SVLALLWVGCWL
low interval

What do you get for CCSGWSVRLLCV ?
middle interval

# iterate: VWLFSWSVVGGT
middle interval

Let us now turn to GIKLNVVYILLG
middle interval

Proceed to LLLLASLFFRLA
middle interval

Do the same for RILFSPSTFYLF please
high interval

# repeat for VFTGYSAFLLLC
middle interval

For PSRRLRHFATSP then?
middle interval

Okay, and RAQQRVKERYIE ?
high interval

And then LLCSPPPLTVPA , what is it?
low interval

// repeat for IIAVFRCCLRVY and report
low interval

Same thing, different sequence: FSFCFCFPLSSL
middle interval

Further, for GAFAGDVWRCVV ?
high interval

Now give it for APPFPSLSSFAP too.
high interval

Next sequence up: GWLRHGWWRTVG
high interval

Subsequent entry: IYITFQIYVSDM
low interval

Same again, this time with WILLVLACFSSG
low interval

Request: AVLSFVLVRSVV
middle interval

Param item: IIFWMWVIIRVY
low interval

Next entry: FLLFFVLRLLPC
low interval

One more sequence: FLCWLSFIPLLS
low interval

// repeat for SRVSEFVIPLGR and report
high interval

Can you check VYVYTIRVRWSE next?
low interval

Now the same for FFLLLLRPPLVM
low interval

Repeat with RIFRCYSFYVVV
middle interval

Can you check KSARLYVTSFLC next?
high interval

Next sequence up: GAVVYGICFCTN
middle interval
